The entries below come with measured Iodide formed values attached.
assay name: Photostability: iodide formed after visible light irradiation
Type: physicochemical
conditions used: 50 mM agent, 10 mM TRIS, pH 7.4, VIS 72 h, agent:SBE7-β-CD 1:0.1

Exam item: Report Iodide formed for "C[C@H](O)C(=O)Nc1c(I)c(C(=O)NC(CO)CO)c(I)c(C(=O)NC(CO)CO)c1I" please.
Marked response: 0.355 wt %

Exam item: Try COCC(=O)Nc1c(I)c(C(=O)NCC(O)CO)c(I)c(C(=O)N(C)CC(O)CO)c1I (centres unmarked) [Iopromide, iopromide] next.
Marked response: 0.269 wt %

Exam item: Try CC(=O)N(CC(O)CN(C(C)=O)c1c(I)c(C(=O)NCC(O)CO)c(I)c(C(=O)NCC(O)CO)c1I)c1c(I)c(C(=O)NCC(O)CO)c(I)c(C(=O)NCC(O)CO)c1I (centres unmarked) next.
Marked response: 0.142 wt %

Exam item: Try O=C(NCC(O)CO)c1c(I)c(C(=O)NCC(O)CO)c(I)c(N(CCO)C(=O)CO)c1I (centres unmarked) next.
Marked response: 0.301 wt %

More entries:
Exam item: Report Iodide formed for CNC(=O)c1c(I)c(C(=O)NCC(=O)Nc2c(I)c(C(=O)O)c(I)c(C(=O)NCCO)c2I)c(I)c(N(C)C(C)=O)c1I [Ioxaglate, ioxaglate] please.
Marked response: 0.211 wt %

Every entry's value here was drawn from patent US20220096664A1.
